The reader will find reported pIC50 values listed item by item below.
Molecular target: Chemerin-like receptor 1 (Homo sapiens, UniProt Q99788)
Sequence (Q99788 whole entry): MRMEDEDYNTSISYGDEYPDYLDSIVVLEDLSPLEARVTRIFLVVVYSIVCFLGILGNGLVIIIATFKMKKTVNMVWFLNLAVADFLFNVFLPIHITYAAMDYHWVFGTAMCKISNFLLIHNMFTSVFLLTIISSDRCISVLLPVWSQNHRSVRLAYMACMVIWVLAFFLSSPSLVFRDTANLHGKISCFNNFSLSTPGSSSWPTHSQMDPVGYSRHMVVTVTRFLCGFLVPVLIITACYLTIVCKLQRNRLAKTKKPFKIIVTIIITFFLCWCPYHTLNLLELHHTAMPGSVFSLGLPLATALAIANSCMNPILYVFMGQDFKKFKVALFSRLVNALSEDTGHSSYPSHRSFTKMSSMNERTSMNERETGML
Assay: Inhibition of chemR23 in human CAL1 cells assessed as inhibition of chemerin-induced intracellular calcium ion concentration preincubated for 45 mins followed by human chemerin addition by FDSS6000 analysis
Please treat pIC50 as minus the base-10 logarithm of the molar concentration.

The cases that follow already have their pIC50 on record.
>>> df
                           molecular_string  property  recorded_number
0  CCCCN(c1nc2c(C(=O)O)cccc2o1)[C@H](C)c1ccc(-c2cc(F)ccc2-c2nc(=O)o[nH]2)cc1     pIC50             8.57
1  CCCCN(c1nc2c(-n3cccn3)cccc2o1)[C@H](C)c1ccc(-c2ccccc2-c2nnn[nH]2)cc1     pIC50             6.48
2  CCCCN(c1nc2ccccc2o1)[C@H](C)c1ccc(-c2cc(Cl)ccc2-c2nnn[nH]2)cc1     pIC50             7.19
3  CCCCN(c1nc2ccccc2o1)[C@H](C)c1ccc(-c2ccc(C)cc2-c2nnn[nH]2)cc1     pIC50             5.68
4  CCCCN(c1nc2ccccc2o1)[C@H](C)c1ccc(-c2c(C)cccc2-c2nnn[nH]2)cc1     pIC50             6.68

Input: I'd like to know its pIC50. The compound in question is CCCCN(c1nc2c(COC)cccc2o1)[C@H](C)c1ccc(-c2ccccc2-c2nnn[nH]2)cc1
Output: 7.54

Input: What would you report for CCCCN(c1nc2ccccc2o1)[C@H](C)c1ccc(-c2cc(C)ccc2-c2nnn[nH]2)cc1 ?
Output: 7.28

Cited source for all entries: ChEMBL document CHEMBL4725330
